So I've got a bunch of sequences here, and I need their apparent KD of MS2 coat protein values.
# Tested on: MS2 coat protein
# Assay details: apparent KD of MS2 coat protein; designed switch direction (-1 OFF switch, 1 ON switch): -1; higher = weaker reporter binding
# Setup conditions: Eterna round: R95; input ligand: none
One number for each entry, in nM.

[
  {
    "Residue string": "AAUAAGCUAGGAUAUACAUGAGGAUCACCCAUGUCCACGCUCUGGAGGGCUGAAUGAUGUAGAAGGAGCAGUGG [Zabier] (puzzle: Exclusion 3)",
    "apparent KD of MS2 coat protein / nM": 13.9
  },
  {
    "Residue string": "CUUCAUCCACCAGAGCUCACACUUAUACCUGCUCUGGUGACAUGAGGAUCACCCAUGUUUUUUGCCCGUCUUAUCUU [Sensor v3, turn-off variant 2 (MOD of Leso)] (puzzle: Sensor v3, turn-off variant 2)",
    "apparent KD of MS2 coat protein / nM": 207
  }
]

// next entry
Input: Which apparent KD of MS2 coat protein value is on record for AGAAAGCAAGGAUAUACAAGUAAACGACGGAAAGUAGAGAGACAUGAGGAUCACCCAUGUAGAAGGUGCGAGAG [JR_Exclu2_Sub034] (puzzle: Exclusion 2) ?
Output: 26.2

###

# Test system: MS2 coat protein
# Assay details: apparent KD of MS2 coat protein; designed switch direction (-1 OFF switch, 1 ON switch): -1; higher = weaker reporter binding
# Setup conditions: Eterna round: R95; input ligand: none
Experimental endpoint: apparent KD of MS2 coat protein (nM)
Give bare numbers, in nM.

[
  {
    "Residue string": "UAUUAACAAGCUAGAUCUUACAUGAGGAUCACCCAUGUGCUCGUCUUAUAAGGUACUGUGACGAAAGUCACGGUACC [Sensor 3, v1 - 77] (puzzle: Sensor v3, turn-off variant 1)",
    "Experimental endpoint": "apparent KD of MS2 coat protein",
    "Value observed": 22.5
  },
  {
    "Residue string": "GAUUGACAUGAGGAUCACCCAUGUGAGGAUAUCGGCUGGACCGUGUUGGCUUGGCUUUCGAGAAGGCGCAUAGG [Exclusion 1 V47] (puzzle: Exclusion 1)",
    "Experimental endpoint": "apparent KD of MS2 coat protein",
    "Value observed": 53.7
  },
  {
    "Residue string": "AAAAAACAUGAGGAUCACCCAUGUCAGGAUAUCCGAAAAGAAAAAUAAAAAGAAAAAGGGAGAAGGGACAAAAA [April's ex-date #3] (puzzle: Exclusion 1)",
    "Experimental endpoint": "apparent KD of MS2 coat protein",
    "Value observed": 61.3
  },
  {
    "Residue string": "UUUUUAUUUUUUUAUUUUGACAUGAGGAUCACCCAUGUAACGAGCAGAUCUUCAUGCAAGCUUUUUGCUCGUCUUAU [Sensor v3 - Turn-off variant 1 - 41] (puzzle: Sensor v3, turn-off variant 1)",
    "Experimental endpoint": "apparent KD of MS2 coat protein",
    "Value observed": 95.6
  },
  {
    "Residue string": "GAUUGACAUGAGGAUCACCCAUGUGAGGAUAUCGGCUGGACCGUGUUGGCUUCGGUUUCGAGAAGGCGCAUAGG [Exclusion 1 V45] (puzzle: Exclusion 1)",
    "Experimental endpoint": "apparent KD of MS2 coat protein",
    "Value observed": 102
  }
]

Go through the list and state apparent KD of MS2 coat protein for each entry.
1. GUGUAAGGAGGAUAUACAUGAGGAUCACCCAUGUGAAUAAGAUAGAAUAAGAUAAAGUGUAGAAGGCUUAGUGU [Excluse me!!! 25 - Jieux - Exclusion 3] (puzzle: Exclusion 3)
2. AAAAGGUCAGGAUAUCGACGCGGUUGGGAGGCAGGUCCGCGCGAGAAGGGACAUGAGGAUCACCCAUGUUAAAA [Excls4-IV] (puzzle: Exclusion 4)
3. CAUACUCAAGUCAGGAUAUAGAGUCGGAUACGGAUCUAGAAGGGACAUGAGGAUCACCCAUGUAGAGAGUAAAG [EX-4 Malc #25] (puzzle: Brourd's mod of Exclusion 4)
4. UUUAAUUUUUUUUUUUUACAAGCUUUUUGCUCGUCUUAUACAUGAGGAUCACCCAUGUGGGUGAGGAGUAAAUUAUC [JMF 61] (puzzle: Sensor v3, turn-off variant 2)
5. AUAAAGUCAGGAUAUCGAAGUGAGUGGAGAGGAGGGAGGUACGAGAAGGGACAUGAGGAUCACCCAUGUAGGAA [JR_Exclusion4)Sub006] (puzzle: Exclusion 4)

Output:
44.7
26.4
21.1
66.7
21.9

All values here come from the supplement of paper PMC9170038.
